Target: human M2 receptor (Homo sapiens, UniProt P08172)
Construct: expressed in transfected cells; host or cells: CHO-DUKX (CHO-DUKX-M2-GIRK)
Sequence (P08172 whole entry): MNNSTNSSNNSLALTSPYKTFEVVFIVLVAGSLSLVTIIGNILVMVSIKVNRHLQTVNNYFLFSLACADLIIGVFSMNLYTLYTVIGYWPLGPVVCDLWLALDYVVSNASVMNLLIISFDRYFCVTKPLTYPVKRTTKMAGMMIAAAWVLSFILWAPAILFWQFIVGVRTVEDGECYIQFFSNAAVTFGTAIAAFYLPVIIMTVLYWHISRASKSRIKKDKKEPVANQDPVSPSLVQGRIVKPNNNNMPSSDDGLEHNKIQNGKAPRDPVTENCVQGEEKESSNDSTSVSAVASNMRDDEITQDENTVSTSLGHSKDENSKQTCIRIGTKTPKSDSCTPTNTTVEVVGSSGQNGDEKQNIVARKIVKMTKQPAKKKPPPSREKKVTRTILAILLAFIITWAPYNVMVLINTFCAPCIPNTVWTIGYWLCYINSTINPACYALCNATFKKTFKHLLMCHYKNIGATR
Experiment: Functional M2-GIRK1/4 activation test: allosteric potency (EC50) and efficiency at EC20 acetylcholine
Format: cell-based
Conditions: boosting of the acetylcholine effect at EC20 acetylcholine concentration; CHO-DUKX-M2-GIRK cells
measured-attribute: Emax (%)

O=C(NC(C(F)(F)F)C(F)(F)F)c1cn(-c2ncc(F)cc2F)c2nc(N3CCCC[C@@H]3CO)c(F)cc2c1=O = 100
CC[C@H](NC(=O)c1cn(-c2c(F)cc(F)cc2F)c2nc(N3CCOCC3)c(F)cc2c1=O)C(F)(F)F = 100
CC(C)[C@@H](C)NC(=O)c1cn(-c2c(F)cc(F)cc2F)c2nc(N3C[C@@H](O)[C@H](O)C3)c(F)cc2c1=O = 96
Cc1cc(F)cc(C)c1-n1cc(C(=O)N[C@@H](C2CC2)C(F)(F)F)c(=O)c2cc(F)c(N3C[C@@H](O)[C@H](O)C3)nc21 = 83
O=C(N[C@@H](C1CC1)C(F)(F)F)c1cn(-c2ncc(F)cc2F)c2nc(N3CC[C@H](O)C3)c(F)cc2c1=O = 99
CC(C)(NC(=O)c1cn(-c2c(F)cc(F)cc2F)c2nc(N3C[C@@H](O)[C@H](O)C3)c(F)cc2c1=O)C(F)(F)C(F)(F)F = 100

###

Molecular target: human M2 receptor (Homo sapiens)
Construct: expressed in transfected cells; host or cells: CHO-DUKX (CHO-DUKX-M2-GIRK)
Assay: Functional M2-GIRK1/4 activation test: positive cooperativity (α factor), shift of acetylcholine dose-response curve
Format: cell-based
Conditions: Allosteric EC50 shift of acetylcholine 8-point dose-response curve; CHO-DUKX-M2-GIRK cells; α>1 = positive cooperativity
measured-attribute: Cooperativity (alpha factor)

CC(NC(=O)c1cn(-c2c(F)cc(F)cc2F)c2nc(N3CC(CO)(CO)C3)c(F)cc2c1=O)C(F)(F)C(F)(F)F (racemic) [Example 170] = 38
O=C(NC(C1CC1)(C1CC1)C(F)(F)F)c1cn(-c2c(F)cc(F)cc2F)c2nc(N3C[C@@H](O)[C@H](O)C3)c(F)cc2c1=O [Example 203] = 29

a: O=C(N[C@@H](C1CC1)C(F)(F)F)c1cn(-c2c(F)cc(F)cc2F)c2nc(N3CC(CO)(CO)C3)c(F)cc2c1=O [Example 84]
b: O=C(NC(C1CC1)C(F)(F)C(F)(F)F)c1cn(-c2c(F)cc(F)cc2F)c2nc(N3CC(CO)(CO)C3)c(F)cc2c1=O (single isomer, unassigned) [Example 207]
Q: Between a and b , which one shows the smaller Cooperativity (alpha factor) number? Indicate which entry you chose by stating its label.
Result: b

###

Target: human M2 receptor (Homo sapiens)
Test: Functional M2-GIRK1/4 activation test: allosteric potency (EC50) and efficiency at EC20 acetylcholine
Conditions: CHO-DUKX-M2-GIRK cells; voltage-sensitive dye; acetylcholine at EC20; in some cases mean of two or more determinations
Description: The binding of orthosteric agonists (endogenous ligand: acetylcholine) to the M2 receptor leads to receptor activation or a change in conformation of the receptor in the manner of a shift in equilibrium in favour of the active receptor conformation. The agonist-induced change in conformation of the M2 receptor results in a Gαi protein activation. […] Under physiological conditions, the result is then a selective efflux of potassium from the cell along the electrochemical gradient. […]
measured-attribute: EC50 (nM)

Please review the following examples before continuing.
CC(C)C(NC(=O)c1cn(-c2c(F)cc(F)cc2F)c2nc(N3CC[C@H](O)C3)c(F)cc2c1=O)C(F)(F)F (single isomer, unassigned) [Example 139] = 3.4
O=C(NC12CC(C1)C2)c1cn(-c2c(F)cccc2F)c2nc(N3C[C@@H](O)[C@H](O)C3)c(F)cc2c1=O = 69
CC[C@H](NC(=O)c1cn(-c2c(F)cc(F)cc2F)c2nc(N3C[C@H](O)[C@@H](O)C3)c(F)cc2c1=O)C(F)(F)F = 17
CC(NC(=O)c1cn(-c2c(F)cc(F)cc2F)c2nc(N3CCC4(C3)NC(=O)N(C)C4=O)c(F)cc2c1=O)C(F)(F)C(F)(F)F (stereo not drawn) = 9.7
CCC(C)(CC)NC(=O)c1cn(-c2c(F)cc(F)cc2F)c2nc(N3C[C@@H](O)[C@H](O)C3)c(F)cc2c1=O = 2.2
CC(NC(=O)c1cn(-c2c(F)cc(F)cc2F)c2nc(N3CC[C@H](O)C3)c(F)cc2c1=O)C(F)(F)C(F)(F)F (mixture of isomers) [Example 112] = 4.25
CC[C@H](NC(=O)c1cn(-c2c(F)cccc2F)c2nc(N3C[C@@H](O)[C@H](O)C3)c(F)cc2c1=O)C(F)(F)F = 38
CC(C)C(COC(F)(F)F)NC(=O)c1cn(-c2c(F)cc(F)cc2F)c2nc(N3C[C@@H](O)[C@H](O)C3)c(F)cc2c1=O (mixture of isomers) = 2.3

P: CC(NC(=O)c1cn(-c2c(F)cc(F)cc2F)c2nc(N3CCC4(C3)NC(=O)NC4=O)c(F)cc2c1=O)C(F)(F)C(F)(F)F (stereo not drawn)
Q: CC(C)[C@@H](C)NC(=O)c1cn(-c2c(F)cc(F)cc2F)c2nc(N3C[C@@H](O)[C@H](O)C3)c(F)cc2c1=O
R: CC(C)(C)OC(=O)N1CCC(NC(=O)c2cn(-c3c(F)cc(F)cc3F)c3nc(N4C[C@@H](O)[C@H](O)C4)c(F)cc3c2=O)C(F)(F)C1 (stereo partly drawn)
Q: Arrange these compounds by their EC50, starting with the largest number. Answer by naming the labels in the order asked.
Result: R, Q, P
(R: 33 nM, Q: 9.15 nM, P: 4 nM)
